From: patent US9969709B2

systemUnderTest: human recombinant trypsin (rh-trypsin) (Homo sapiens, UniProt P07477)
Construct: purchased Wako Pure Chemical Industries, Ltd. 206-17171
testDetails: Trypsin inhibitory activity, human recombinant trypsin, BZiPAR fluorescent substrate
Format: biochemical
conditionLabel: 30 min at room temperature, read-out: r-h Trypsin inhibitory activity (IC50)
readoutKind: IC50 (nM)
Answer in nM, number only, no unit symbol.

Example entries begin here.
N=C(N)Nc1ccc(C(=O)Oc2ccc3c(c2)CCCC3CC(=O)N(CC(=O)O)Cc2cccc(CC(=O)O)c2)cc1 (stereo not drawn) : 0.26
N=C(N)Nc1ccc(C(=O)Oc2ccc3c(c2)CCCC3CC(=O)N(CC(=O)O)Cc2ccc(CC(=O)O)cc2)cc1 (stereo not drawn) : 0.33
N=C(N)Nc1ccc(C(=O)Oc2ccc3c(C(=O)N(CC(=O)O)Cc4ccc5sc(C(=O)O)cc5c4)csc3c2)cc1 : 0.15

Tell me IC50 reported for N=C(N)Nc1ccc(C(=O)Oc2ccc3c(c2)CCC(C(=O)N(CC(=O)O)Cc2ccc(CC(=O)O)cc2)C3)cc1 (stereo not drawn)
0.47

Tell me IC50 reported for N=C(N)Nc1ccc(C(=O)Oc2ccc3c(C(=O)N(CC(=O)O)Cc4cccc(CC(=O)O)c4)cccc3c2)cc1
0.2

Tell me IC50 reported for C[C@H](C(=O)O)N(Cc1csc(C(=O)O)c1)C(=O)CC1CCCc2cc(OC(=O)c3ccc(NC(=N)N)cc3)ccc21 (single isomer, unassigned) [Example 7]
0.3

* * *

Test system: ICR mice
testDetails: Test of increase in fecal protein concentration using mice
Assay type: in vivo, mouse
conditionLabel: Mus musculus, po, 9 h, 5 mg/kg oral, male ICR mice, feces collected 3 to 9 hours after feeding started, control group = 1; read-out: Fecal protein, Folds (vs. control)
Description: 2. Test of Increase in Fecal Protein Concentration Using Mice For the experiment, 6-week old male ICR mice were used. The experiment was carried out in five mice per group. […] The protein concentration in the obtained supernatant was measured by a Bradford method, and the amount of the protein in 1 g of feces was calculated by dividing the protein concentration in the feces by the total weight of feces. […] For the compounds that were evaluated multiple times, the average values were calculated. […]
readoutKind: response vs control in vivo at 5 mg/kg (%)
Answer in %, number only, no unit symbol.

N=C(N)Nc1ccc(C(=O)Oc2ccc3c(C(=O)N[C@@H](Cc4ccc(C(=O)O)cc4)C(=O)O)csc3c2)cc1 [Example 47] : 191
N=C(N)Nc1ccc(C(=O)Oc2ccc3c(c2)CCCC3CC(=O)N[C@@H](Cc2ccc(C(=O)O)cc2)C(=O)O)cc1 (stereo partly shown) [Example 36] : 190
N=C(N)Nc1ccc(C(=O)Oc2ccc3c(c2)CCCC3CC(=O)N(CC(=O)O)Cc2csc(CC(=O)O)c2)cc1 (stereo not shown) [Example 38] : 191

Tell me response vs control in vivo at 5 mg/kg reported for N=C(N)Nc1ccc(C(=O)Oc2ccc3c(C(=O)N(CC(=O)O)Cc4csc(C(=O)O)c4)cccc3c2)cc1 [Example 57]
225

* * *

systemUnderTest: human recombinant trypsin (rh-trypsin) (Homo sapiens, UniProt P07477)
testDetails: Trypsin inhibitory activity, human recombinant trypsin, BZiPAR fluorescent substrate
conditionLabel: 30 min at room temperature, read-out: r-h Trypsin inhibitory activity (IC50)
Quick reference for pIC50 among some molecules
Note on units: pIC50 is unitless, being -log10 of a concentration expressed in mol/L.

Example entries begin here.
C[C@H](C(=O)O)N(Cc1csc(C(=O)O)c1)C(=O)c1cccc2cc(OC(=O)c3ccc(NC(=N)N)cc3)ccc12 [Example 18] : 9.54
N=C(N)Nc1ccc(C(=O)Oc2ccc3cc(C(=O)N(CC(=O)O)Cc4ccc(CC(=O)O)cc4)ccc3c2)cc1 [Example 16] : 9.85

Tell me pIC50 reported for N=C(N)Nc1ccc(C(=O)Oc2ccc3c(c2)CCCC3CC(=O)N(CC(=O)O)Cc2ccc3sc(C(=O)O)cc3c2)cc1 (stereo not drawn) [Example 25]
9.55

Tell me pIC50 reported for N=C(N)Nc1ccc(C(=O)Oc2ccc3c(C(=O)N(CC(=O)O)Cc4csc(C(=O)O)c4)csc3c2)cc1 [Example 13]
9.60
